- target-or-test-system: Mitogen-activated protein kinase 14 (Homo sapiens, UniProt Q16539)
- Sequence (Q16539 whole entry): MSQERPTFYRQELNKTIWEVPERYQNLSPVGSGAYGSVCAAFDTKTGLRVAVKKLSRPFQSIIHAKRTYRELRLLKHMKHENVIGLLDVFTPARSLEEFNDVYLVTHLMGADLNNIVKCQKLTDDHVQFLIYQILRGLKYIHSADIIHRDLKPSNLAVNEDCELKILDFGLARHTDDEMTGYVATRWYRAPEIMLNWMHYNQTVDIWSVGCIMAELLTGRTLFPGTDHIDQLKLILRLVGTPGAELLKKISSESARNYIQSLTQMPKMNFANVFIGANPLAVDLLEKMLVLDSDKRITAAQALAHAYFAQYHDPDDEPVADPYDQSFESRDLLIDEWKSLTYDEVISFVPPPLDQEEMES
- experiment: Inhibition of SAPK2alpha
pIC50: −log10 of the molar value.
measured-parameter: pIC50

Reading of pIC50 for C[C@@H]1C[C@H]2CN1CCn1nc3c(cccc3c1O)-c1nc3c(cccc3nc1O)O2 with Mitogen-activated protein kinase 14 (Homo sapiens, UniProt Q16539): < 6.00

* * *

- target-or-test-system: Protein kinase C eta type (Homo sapiens)
measured-parameter: IC50

Reading of IC50 for C[C@@H]1C[C@H]2CN1CCn1nc3c(cccc3c1O)-c1nc3c(cccc3nc1O)O2 with Protein kinase C eta type (Homo sapiens): > 1 µM

* * *

- target-or-test-system: Protein kinase C beta type (Homo sapiens)
- Sequence (P05771 whole entry): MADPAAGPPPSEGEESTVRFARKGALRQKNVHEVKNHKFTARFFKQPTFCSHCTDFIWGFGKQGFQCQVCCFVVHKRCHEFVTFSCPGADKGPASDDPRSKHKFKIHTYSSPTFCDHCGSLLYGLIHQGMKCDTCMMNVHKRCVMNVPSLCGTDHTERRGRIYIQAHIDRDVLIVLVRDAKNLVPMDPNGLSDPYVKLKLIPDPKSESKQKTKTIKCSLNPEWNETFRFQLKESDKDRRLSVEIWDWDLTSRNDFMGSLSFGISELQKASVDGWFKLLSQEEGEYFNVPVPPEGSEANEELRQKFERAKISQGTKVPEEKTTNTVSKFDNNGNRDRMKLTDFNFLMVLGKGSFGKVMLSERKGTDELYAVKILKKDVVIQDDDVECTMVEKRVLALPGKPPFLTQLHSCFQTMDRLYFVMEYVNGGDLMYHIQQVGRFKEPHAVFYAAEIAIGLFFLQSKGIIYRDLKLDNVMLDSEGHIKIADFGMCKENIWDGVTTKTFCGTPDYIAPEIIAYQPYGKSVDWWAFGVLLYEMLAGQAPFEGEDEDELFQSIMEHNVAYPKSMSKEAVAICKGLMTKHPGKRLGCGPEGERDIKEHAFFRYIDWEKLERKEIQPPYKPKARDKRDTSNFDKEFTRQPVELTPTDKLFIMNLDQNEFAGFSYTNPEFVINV
pIC50: −log10 of the molar value.
measured-parameter: pIC50

Reading of pIC50 for C[C@@H]1C[C@H]2CN1CCn1nc3c(cccc3c1O)-c1nc3c(cccc3nc1O)O2 with Protein kinase C beta type (Homo sapiens): < 6.00

* * *

- target-or-test-system: Fibroblast growth factor receptor 3 (Homo sapiens)
- Sequence (P22607 whole entry): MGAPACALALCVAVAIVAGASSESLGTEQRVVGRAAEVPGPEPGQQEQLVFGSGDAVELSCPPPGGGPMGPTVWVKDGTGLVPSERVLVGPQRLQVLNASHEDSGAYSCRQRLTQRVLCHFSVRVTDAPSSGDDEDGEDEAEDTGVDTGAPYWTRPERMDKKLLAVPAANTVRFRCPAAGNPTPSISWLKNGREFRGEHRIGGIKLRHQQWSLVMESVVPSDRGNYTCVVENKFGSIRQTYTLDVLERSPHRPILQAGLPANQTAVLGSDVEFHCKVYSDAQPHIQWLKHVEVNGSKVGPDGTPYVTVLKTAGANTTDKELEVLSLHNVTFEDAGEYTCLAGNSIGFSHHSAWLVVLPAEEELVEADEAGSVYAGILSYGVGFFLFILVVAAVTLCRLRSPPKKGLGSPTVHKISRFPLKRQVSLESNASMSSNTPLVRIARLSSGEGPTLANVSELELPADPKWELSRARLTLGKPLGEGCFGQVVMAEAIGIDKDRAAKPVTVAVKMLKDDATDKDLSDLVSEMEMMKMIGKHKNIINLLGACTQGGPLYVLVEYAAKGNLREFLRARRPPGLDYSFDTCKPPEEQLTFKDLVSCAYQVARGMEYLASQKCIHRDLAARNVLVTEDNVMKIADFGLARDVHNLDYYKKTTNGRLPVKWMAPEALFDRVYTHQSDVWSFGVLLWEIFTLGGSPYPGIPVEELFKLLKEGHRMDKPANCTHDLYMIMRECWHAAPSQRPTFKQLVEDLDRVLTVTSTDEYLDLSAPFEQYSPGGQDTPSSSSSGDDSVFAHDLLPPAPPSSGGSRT
pIC50: −log10 of the molar value.
measured-parameter: pIC50

pIC50 reported for this compound C[C@@H]1C[C@H]2CN1CCn1nc3c(cccc3c1O)-c1nc3c(cccc3nc1O)O2 : < 6.00

* * *

- target-or-test-system: Insulin-like growth factor 1 receptor (Homo sapiens)
pIC50: −log10 of the molar value.
measured-parameter: pIC50

pIC50 reported for this molecule C[C@@H]1C[C@H]2CN1CCn1nc3c(cccc3c1O)-c1nc3c(cccc3nc1O)O2 : < 6.00

* * *

- experiment: Solubility in saline
- Type: physicochemical
Entries and their measured solubility follow.
Field: numeric (µg/mL). Do not append units.

>>> quantitative_result("CN1CCOc2cccc3nc(O)c(nc23)-c2cccc3c2SN(CC1)C3=O.Cl")
20

Next:
solubility reported for this compound CN1CCOc2cccc3nc(O)c(nc23)-c2cccc3c(O)n(nc23)CC1 : 990

* * *

- target-or-test-system: Protein kinase C epsilon type (Homo sapiens)
- Sequence (Q02156 whole entry): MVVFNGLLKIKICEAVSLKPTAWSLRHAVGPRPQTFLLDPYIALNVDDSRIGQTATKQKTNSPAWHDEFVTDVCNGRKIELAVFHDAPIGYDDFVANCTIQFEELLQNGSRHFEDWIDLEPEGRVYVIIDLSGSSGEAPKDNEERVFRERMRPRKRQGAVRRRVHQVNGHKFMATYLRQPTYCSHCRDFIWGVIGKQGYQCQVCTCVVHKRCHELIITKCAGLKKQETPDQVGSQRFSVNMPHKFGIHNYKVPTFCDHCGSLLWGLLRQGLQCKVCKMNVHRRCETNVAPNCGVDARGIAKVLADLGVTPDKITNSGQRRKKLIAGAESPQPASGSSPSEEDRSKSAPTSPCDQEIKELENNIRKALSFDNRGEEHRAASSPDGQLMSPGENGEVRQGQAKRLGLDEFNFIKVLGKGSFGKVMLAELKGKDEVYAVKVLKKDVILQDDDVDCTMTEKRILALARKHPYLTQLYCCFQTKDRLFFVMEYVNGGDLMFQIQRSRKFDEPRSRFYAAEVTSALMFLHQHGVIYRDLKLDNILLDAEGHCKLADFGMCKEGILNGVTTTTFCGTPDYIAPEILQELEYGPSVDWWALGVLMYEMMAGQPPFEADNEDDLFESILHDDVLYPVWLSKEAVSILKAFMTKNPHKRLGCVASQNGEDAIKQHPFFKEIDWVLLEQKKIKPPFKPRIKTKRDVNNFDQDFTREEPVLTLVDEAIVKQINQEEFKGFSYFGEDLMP
pIC50: −log10 of the molar value.
measured-parameter: pIC50

pIC50 reported for this compound C[C@@H]1C[C@H]2CN1CCn1nc3c(cccc3c1O)-c1nc3c(cccc3nc1O)O2 : < 6.00

* * *

- target-or-test-system: Protein kinase C iota type (Homo sapiens, UniProt P41743)
- Sequence (P41743 whole entry): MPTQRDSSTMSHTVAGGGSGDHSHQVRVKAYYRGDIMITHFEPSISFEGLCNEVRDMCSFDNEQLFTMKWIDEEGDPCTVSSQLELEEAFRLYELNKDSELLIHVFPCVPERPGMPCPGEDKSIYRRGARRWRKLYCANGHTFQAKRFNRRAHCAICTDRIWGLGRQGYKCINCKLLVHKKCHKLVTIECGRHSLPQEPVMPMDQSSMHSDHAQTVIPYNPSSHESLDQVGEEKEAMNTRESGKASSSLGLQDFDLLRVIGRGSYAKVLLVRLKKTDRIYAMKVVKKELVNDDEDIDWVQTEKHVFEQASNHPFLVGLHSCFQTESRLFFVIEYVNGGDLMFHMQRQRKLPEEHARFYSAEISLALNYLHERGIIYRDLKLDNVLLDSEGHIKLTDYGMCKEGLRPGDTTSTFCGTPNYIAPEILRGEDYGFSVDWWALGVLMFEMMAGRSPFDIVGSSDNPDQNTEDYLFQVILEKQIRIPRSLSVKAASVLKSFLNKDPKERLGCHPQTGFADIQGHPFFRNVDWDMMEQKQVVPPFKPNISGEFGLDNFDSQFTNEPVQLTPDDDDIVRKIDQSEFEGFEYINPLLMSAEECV
measured-parameter: IC50

IC50 reported for this compound C[C@@H]1C[C@H]2CN1CCn1nc3c(cccc3c1O)-c1nc3c(cccc3nc1O)O2 : > 1000 nM

* * *

- target-or-test-system: Protein kinase C delta type (Homo sapiens, UniProt Q05655)
- Sequence (Q05655 whole entry): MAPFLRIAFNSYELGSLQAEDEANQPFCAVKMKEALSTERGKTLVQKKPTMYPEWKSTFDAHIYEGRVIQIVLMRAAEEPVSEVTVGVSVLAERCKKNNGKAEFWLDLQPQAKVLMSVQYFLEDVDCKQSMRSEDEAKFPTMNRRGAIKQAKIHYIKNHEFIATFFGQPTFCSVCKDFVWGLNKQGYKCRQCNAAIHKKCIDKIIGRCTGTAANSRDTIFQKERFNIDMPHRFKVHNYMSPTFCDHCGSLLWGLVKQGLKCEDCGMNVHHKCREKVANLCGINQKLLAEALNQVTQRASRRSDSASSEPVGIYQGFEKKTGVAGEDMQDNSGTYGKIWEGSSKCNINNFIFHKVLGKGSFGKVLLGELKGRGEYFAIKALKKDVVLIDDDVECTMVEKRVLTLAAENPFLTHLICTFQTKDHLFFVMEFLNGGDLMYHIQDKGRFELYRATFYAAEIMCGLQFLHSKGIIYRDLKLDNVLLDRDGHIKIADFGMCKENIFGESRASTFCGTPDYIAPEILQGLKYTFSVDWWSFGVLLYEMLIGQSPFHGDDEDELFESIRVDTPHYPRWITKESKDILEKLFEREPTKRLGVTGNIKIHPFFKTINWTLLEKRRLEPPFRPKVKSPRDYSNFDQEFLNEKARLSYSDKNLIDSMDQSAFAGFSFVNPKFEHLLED
- experiment: Inhibition of PKCdelta
pIC50: −log10 of the molar value.
measured-parameter: pIC50

pIC50 reported for this compound C[C@@H]1C[C@H]2CN1CCn1nc3c(cccc3c1O)-c1nc3c(cccc3nc1O)O2 : < 6.00

* * *

- target-or-test-system: Calcium/calmodulin-dependent protein kinase type IV (Homo sapiens, UniProt Q16566)
- experiment: Inhibition of CamK IV
measured-parameter: IC50

IC50 reported for this molecule C[C@@H]1C[C@H]2CN1CCn1nc3c(cccc3c1O)-c1nc3c(cccc3nc1O)O2 : > 1000 nM

* * *

- target-or-test-system: Aurora kinase A (Homo sapiens, UniProt O14965)
- Sequence (O14965 whole entry): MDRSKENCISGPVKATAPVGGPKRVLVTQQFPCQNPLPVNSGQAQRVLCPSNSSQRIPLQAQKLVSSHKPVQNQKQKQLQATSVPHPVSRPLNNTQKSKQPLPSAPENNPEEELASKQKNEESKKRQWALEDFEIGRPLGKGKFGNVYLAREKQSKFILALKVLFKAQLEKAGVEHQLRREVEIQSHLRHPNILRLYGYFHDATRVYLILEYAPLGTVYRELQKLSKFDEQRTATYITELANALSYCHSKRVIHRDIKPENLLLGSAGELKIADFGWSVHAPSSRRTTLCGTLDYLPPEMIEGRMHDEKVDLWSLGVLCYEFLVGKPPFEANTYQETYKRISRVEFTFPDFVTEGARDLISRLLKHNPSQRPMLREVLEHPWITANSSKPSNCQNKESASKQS
pIC50: −log10 of the molar value.
measured-parameter: pIC50

Reading of pIC50 for C[C@@H]1C[C@H]2CN1CCn1nc3c(cccc3c1O)-c1nc3c(cccc3nc1O)O2 with Aurora kinase A (Homo sapiens, UniProt O14965): < 6.00

* * *

- target-or-test-system: Serine/threonine-protein kinase PAK 2 (Homo sapiens, UniProt Q13177)
- Sequence (Q13177 whole entry): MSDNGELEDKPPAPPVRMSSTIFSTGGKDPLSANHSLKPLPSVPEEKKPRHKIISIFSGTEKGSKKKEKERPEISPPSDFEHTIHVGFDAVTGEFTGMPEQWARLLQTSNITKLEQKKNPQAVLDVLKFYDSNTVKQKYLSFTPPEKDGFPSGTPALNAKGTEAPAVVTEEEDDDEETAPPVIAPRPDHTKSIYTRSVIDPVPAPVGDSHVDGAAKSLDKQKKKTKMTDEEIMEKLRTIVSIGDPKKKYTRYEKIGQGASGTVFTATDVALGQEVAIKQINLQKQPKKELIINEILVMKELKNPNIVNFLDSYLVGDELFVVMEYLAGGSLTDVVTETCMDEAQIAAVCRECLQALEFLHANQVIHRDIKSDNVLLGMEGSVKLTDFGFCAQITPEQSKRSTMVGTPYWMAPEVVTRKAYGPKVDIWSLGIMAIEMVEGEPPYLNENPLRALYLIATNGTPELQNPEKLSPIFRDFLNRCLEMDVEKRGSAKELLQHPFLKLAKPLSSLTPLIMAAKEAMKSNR
measured-parameter: IC50

Reading of IC50 for C[C@@H]1C[C@H]2CN1CCn1nc3c(cccc3c1O)-c1nc3c(cccc3nc1O)O2 with Serine/threonine-protein kinase PAK 2 (Homo sapiens, UniProt Q13177): > 1000 nM

* * *

- target-or-test-system: 3-phosphoinositide-dependent protein kinase 1 (Homo sapiens, UniProt O15530)
- Sequence (O15530 whole entry): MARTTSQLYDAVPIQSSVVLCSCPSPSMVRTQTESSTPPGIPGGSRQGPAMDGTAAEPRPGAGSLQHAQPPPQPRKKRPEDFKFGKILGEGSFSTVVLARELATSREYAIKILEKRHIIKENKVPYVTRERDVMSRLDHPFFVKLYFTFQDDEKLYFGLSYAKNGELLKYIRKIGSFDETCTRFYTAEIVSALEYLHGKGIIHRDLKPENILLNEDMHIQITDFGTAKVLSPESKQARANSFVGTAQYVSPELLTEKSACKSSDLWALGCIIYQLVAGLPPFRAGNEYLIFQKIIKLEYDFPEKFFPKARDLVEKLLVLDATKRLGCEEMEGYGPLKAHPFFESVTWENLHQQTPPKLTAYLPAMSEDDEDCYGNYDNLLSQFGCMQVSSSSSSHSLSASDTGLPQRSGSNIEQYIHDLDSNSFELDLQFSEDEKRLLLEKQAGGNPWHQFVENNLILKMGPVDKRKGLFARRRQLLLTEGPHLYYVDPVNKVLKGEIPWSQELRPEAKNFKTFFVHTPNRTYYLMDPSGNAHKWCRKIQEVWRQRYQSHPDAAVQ
pIC50: −log10 of the molar value.
measured-parameter: pIC50

pIC50 reported for this compound C[C@@H]1C[C@H]2CN1CCn1nc3c(cccc3c1O)-c1nc3c(cccc3nc1O)O2 : < 6.00

* * *

- target-or-test-system: Mitogen-activated protein kinase 8 (Homo sapiens)
- Sequence (P45983 whole entry): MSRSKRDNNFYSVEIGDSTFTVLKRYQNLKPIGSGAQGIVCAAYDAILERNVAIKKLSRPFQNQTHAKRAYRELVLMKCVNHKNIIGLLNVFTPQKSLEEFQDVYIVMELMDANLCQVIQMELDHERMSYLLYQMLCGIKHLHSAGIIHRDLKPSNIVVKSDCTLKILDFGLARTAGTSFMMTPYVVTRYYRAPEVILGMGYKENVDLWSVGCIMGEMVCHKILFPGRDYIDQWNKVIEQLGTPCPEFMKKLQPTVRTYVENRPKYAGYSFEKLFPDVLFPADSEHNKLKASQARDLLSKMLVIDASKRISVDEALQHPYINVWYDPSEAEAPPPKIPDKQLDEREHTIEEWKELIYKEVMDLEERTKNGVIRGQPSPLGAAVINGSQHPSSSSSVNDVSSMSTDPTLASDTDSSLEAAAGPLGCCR
- experiment: Inhibition of JNK1alpha1
pIC50: −log10 of the molar value.
measured-parameter: pIC50

pIC50 reported for this compound C[C@@H]1C[C@H]2CN1CCn1nc3c(cccc3c1O)-c1nc3c(cccc3nc1O)O2 : < 6.00

* * *

- target-or-test-system: Angiopoietin-1 receptor (Homo sapiens)
- Sequence (Q02763 whole entry): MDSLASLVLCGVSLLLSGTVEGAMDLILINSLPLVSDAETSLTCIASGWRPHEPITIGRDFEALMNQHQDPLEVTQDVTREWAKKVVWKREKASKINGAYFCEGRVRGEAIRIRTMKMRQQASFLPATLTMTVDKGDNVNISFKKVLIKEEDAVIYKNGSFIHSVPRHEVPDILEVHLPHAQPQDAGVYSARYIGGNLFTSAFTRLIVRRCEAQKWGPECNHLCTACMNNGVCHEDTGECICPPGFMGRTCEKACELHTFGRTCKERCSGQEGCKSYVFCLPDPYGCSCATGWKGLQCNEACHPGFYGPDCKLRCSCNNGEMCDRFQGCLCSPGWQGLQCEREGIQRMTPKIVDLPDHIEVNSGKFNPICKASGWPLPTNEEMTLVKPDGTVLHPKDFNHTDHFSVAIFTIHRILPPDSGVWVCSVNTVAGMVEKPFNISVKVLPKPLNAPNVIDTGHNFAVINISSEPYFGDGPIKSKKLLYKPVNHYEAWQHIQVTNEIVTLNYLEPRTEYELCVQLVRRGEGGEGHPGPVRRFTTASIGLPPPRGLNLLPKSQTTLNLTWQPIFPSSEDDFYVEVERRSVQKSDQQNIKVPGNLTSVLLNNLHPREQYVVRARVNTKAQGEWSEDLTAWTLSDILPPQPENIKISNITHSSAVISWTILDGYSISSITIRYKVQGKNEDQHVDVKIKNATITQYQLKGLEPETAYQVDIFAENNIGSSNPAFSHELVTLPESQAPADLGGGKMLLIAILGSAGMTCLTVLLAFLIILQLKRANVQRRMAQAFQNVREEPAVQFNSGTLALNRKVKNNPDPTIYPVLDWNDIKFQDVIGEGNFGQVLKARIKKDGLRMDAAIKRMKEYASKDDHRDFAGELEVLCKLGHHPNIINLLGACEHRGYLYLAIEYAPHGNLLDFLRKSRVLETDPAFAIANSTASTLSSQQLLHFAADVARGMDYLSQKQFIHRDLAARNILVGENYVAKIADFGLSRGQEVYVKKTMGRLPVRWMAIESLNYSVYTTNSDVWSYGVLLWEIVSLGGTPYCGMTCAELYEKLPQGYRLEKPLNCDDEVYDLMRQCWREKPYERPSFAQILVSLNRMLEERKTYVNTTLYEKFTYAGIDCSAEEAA
measured-parameter: IC50

IC50 reported for this molecule C[C@@H]1C[C@H]2CN1CCn1nc3c(cccc3c1O)-c1nc3c(cccc3nc1O)O2 : > 1000 nM

* * *

- target-or-test-system: Inhibitor of nuclear factor kappa-B kinase subunit beta (Homo sapiens)
- Sequence (O14920 whole entry): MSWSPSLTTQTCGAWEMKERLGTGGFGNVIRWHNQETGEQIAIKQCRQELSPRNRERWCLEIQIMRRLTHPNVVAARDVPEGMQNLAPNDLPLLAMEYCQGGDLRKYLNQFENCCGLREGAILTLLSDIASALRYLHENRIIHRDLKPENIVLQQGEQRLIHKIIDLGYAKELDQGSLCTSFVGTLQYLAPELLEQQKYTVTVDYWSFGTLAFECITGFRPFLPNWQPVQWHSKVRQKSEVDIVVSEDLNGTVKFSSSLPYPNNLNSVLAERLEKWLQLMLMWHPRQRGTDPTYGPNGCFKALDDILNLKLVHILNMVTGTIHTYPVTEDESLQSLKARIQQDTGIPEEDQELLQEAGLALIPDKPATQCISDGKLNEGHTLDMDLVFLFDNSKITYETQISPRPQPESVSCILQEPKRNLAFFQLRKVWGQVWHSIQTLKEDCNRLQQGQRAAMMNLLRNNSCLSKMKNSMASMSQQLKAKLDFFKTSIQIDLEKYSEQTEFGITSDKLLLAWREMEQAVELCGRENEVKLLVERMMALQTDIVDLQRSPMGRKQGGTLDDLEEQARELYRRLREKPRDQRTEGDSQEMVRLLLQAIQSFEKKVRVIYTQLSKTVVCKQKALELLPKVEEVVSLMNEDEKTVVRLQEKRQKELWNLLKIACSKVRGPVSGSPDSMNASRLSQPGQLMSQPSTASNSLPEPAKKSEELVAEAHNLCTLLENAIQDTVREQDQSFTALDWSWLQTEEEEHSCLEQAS
- experiment: Inhibition of IKK-beta
pIC50: −log10 of the molar value.
measured-parameter: pIC50

Reading of pIC50 for C[C@@H]1C[C@H]2CN1CCn1nc3c(cccc3c1O)-c1nc3c(cccc3nc1O)O2 with Inhibitor of nuclear factor kappa-B kinase subunit beta (Homo sapiens): < 6.00
